- TGT: TbUBA1a (Trypanosoma brucei, UniProt Q57XC5, E559D/Q534P/S560A)
- Construct: GST fusion cleaved with HRV 3C; with ubiquitin
- Sequence (Q57XC5 whole entry E559D/Q534P/S560A, the tested form may be a part): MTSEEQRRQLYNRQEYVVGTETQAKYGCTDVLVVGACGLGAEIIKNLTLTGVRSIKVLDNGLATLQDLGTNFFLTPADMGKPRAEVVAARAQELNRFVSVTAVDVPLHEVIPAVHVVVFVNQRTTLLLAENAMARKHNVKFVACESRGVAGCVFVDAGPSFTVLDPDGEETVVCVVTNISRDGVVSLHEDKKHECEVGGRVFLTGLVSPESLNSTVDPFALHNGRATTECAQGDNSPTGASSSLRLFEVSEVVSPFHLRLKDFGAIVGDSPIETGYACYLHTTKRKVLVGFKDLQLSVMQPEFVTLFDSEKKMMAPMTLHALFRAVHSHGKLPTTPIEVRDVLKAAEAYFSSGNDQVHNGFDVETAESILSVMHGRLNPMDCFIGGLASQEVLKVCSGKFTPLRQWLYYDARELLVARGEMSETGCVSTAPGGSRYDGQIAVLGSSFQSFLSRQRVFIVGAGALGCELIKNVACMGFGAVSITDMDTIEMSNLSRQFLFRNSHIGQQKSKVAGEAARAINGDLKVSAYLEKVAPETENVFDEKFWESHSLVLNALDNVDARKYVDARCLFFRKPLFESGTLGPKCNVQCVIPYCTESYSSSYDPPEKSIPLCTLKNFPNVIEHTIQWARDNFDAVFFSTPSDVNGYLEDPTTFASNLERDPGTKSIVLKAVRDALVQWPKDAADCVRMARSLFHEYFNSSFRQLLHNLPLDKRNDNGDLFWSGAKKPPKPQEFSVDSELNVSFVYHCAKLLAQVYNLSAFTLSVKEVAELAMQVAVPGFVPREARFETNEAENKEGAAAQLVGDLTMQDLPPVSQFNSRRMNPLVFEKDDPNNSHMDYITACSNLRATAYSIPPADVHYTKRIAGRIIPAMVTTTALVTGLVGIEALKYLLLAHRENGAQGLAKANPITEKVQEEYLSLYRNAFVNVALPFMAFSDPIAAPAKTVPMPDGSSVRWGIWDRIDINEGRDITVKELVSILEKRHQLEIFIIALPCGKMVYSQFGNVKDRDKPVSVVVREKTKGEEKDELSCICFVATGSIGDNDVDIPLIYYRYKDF
- ASSAY DETAILS: E1-E2 transthioesterification assay (UbcH5a, Coomassie gel), recombinant purified E1
READOUT LABEL: pIC50
In simple prose, pIC50 is minus the logarithm base ten of a concentration in moles per litre.

NS(=O)(=O)OC[C@H]1C[C@@H](Nc2ccnc3cc(-c4cccc(SC(F)(F)F)c4)nn23)[C@H](O)[C@@H]1O yielded pIC50 of 4.92

Ref: paper PMC6838199
